target.or.system: ZmDRIK1-R187-P492 (Zea mays, UniProt C0P4K9)
Construct: kinase domain, R187-P492
test.name: biochemical
applied.conditions: read-out: dTm B, DSF, Boltzmann fit, 0.1% DMSO
Where a name gives a salt, the structure may show the parent alone.
parameter: ΔTm at 10 µM (°C)
Value expressed in °C; do not type the unit.

compound | target.or.system | parameter | reported.measurement
COC(=O)[C@]12CCC(C)(C)C[C@H]1[C@H]1C(=O)C=C3[C@@]4(C)C=C(C#N)C(=O)C(C)(C)[C@@H]4CC[C@@]3(C)[C@]1(C)CC2 | ZmDRIK1-R187-P492 (Zea mays, UniProt C0P4K9) | ΔTm at 10 µM | -1.1
COc1ccc(-c2ccc3c(N4CCOCC4)nc(N4C[C@@H](C)O[C@@H](C)C4)nc3n2)cc1CO | ZmDRIK1-R187-P492 (Zea mays, UniProt C0P4K9) | ΔTm at 10 µM | -0.299
Cc1cc(F)c(Nc2ncnc3cc(OCc4ccccc4)ccc23)cc1O [ZM 323881 HCl] | ZmDRIK1-R187-P492 (Zea mays, UniProt C0P4K9) | ΔTm at 10 µM | -1.9
COc1ccc(S(=O)(=O)N(C(C)=O)c2ccccc2/C=C/c2cc[n+]([O-])cc2)cc1 | ZmDRIK1-R187-P492 (Zea mays, UniProt C0P4K9) | ΔTm at 10 µM | -0.238
Cc1ccc(-n2nc(C(C)(C)C)cc2NC(=O)Nc2ccc(OCCN3CCOCC3)c3ccccc23)cc1 | ZmDRIK1-R187-P492 (Zea mays, UniProt C0P4K9) | ΔTm at 10 µM | -0.248
O=C(O)c1ccc(-c2c[nH]c3ncc(-c4ccccc4)cc23)cc1C1CCCC1 | ZmDRIK1-R187-P492 (Zea mays, UniProt C0P4K9) | ΔTm at 10 µM | -0.485

QUERY: # query: ΔTm at 10 µM of entry Oc1ccc2ccccc2c1SSc1c(O)ccc2ccccc12
RESULT: -15.4

====

target.or.system: ZmDRIK1 (DROUGHT RESPONSIVE INACTIVE KINASE 1), kinase domain (Zea mays, UniProt C0P4K9)
Construct: gene ZEAMMB73_Zm00001d028770; ZmDRIK1-KD R187-S514 (kinase domain)
Sequence (C0P4K9 187-514): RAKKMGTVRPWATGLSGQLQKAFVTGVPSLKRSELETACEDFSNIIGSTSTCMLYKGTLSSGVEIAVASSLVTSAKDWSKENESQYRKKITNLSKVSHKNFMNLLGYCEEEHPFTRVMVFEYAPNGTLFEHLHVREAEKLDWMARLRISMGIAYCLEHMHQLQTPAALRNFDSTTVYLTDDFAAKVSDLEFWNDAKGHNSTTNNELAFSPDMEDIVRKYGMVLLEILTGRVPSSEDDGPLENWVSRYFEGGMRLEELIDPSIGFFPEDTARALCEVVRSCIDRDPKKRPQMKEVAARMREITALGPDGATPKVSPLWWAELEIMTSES
test.name: biochemical
applied.conditions: read-out: dTm B, sheet ZmDRIK1-R187-S514;; DSF, Boltzmann fit, 0.1% DMSO
Some compounds, each annotated with its measured ΔTm at 10 µM.
Value expressed in °C; do not type the unit.

QUERY: # query: ΔTm at 10 µM of entry COc1cccc(-c2cc(=O)c3ccccc3o2)c1N
RESULT: -1.1

====

target.or.system: ZmDRIK1 (DROUGHT RESPONSIVE INACTIVE KINASE 1), kinase domain (Zea mays, UniProt C0P4K9)
Construct: gene ZEAMMB73_Zm00001d028770; ZmDRIK1-KD R187-S514 (kinase domain)
Sequence (C0P4K9 187-514): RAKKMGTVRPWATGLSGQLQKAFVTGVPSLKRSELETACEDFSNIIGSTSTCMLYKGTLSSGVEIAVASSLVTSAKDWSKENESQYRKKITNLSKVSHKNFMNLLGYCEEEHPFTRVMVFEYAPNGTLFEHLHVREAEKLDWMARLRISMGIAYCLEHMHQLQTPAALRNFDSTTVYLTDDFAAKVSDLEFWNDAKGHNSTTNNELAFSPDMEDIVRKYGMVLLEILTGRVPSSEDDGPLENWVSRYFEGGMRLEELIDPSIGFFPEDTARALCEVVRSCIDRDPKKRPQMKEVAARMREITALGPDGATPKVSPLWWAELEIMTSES
test.name: biochemical
applied.conditions: read-out: dTm B, sheet ZmDRIK1-R187-S514;; DSF, Boltzmann fit, 0.1% DMSO
Use -0.9 °C as the dividing line for ΔTm at 10 µM, with the line itself on the class 1 side and lower values as class 0.

Some entries whose results are on file:
compound | target.or.system | assigned.category
Cc1cc([C@@H](C)Nc2ccccc2C(=O)O)c2nc(N3CCOCC3)cc(=O)n2c1 | ZmDRIK1 (DROUGHT RESPONSIVE INACTIVE KINASE 1), kinase domain (Zea mays, UniProt C0P4K9) | class 1
O=C1NC(=O)/C(=C/c2ccc(-c3ccc(F)cc3O)o2)S1 | ZmDRIK1 (DROUGHT RESPONSIVE INACTIVE KINASE 1), kinase domain (Zea mays, UniProt C0P4K9) | class 1

QUERY: # bool: ΔTm at 10 µM of CO[C@H]1C[C@@H]2CC[C@@H](C)[C@@](O)(O2)C(=O)C(=O)N2CCCC[C@H]2C(=O)O[C@H]([C@H](C)C[C@@H]2CC[C@@H](OC(=O)C(C)(CO)CO)[C@H](OC)C2)CC(=O)[C@H](C)/C=C(\C)[C@@H](O)[C@@H](OC)C(=O)[C@H](C)C[C@H](C)/C=C/C=C/C=C/1C >= -0.9 °C
RESULT: class 0

QUERY: And for Cc1ccc(C(=O)Nc2ccc(CN3CCN(C)CC3)c(C(F)(F)F)c2)cc1C#Cc1cnc2cccnn12 ?
RESULT: class 0

QUERY: And for CCN(CC)CCNC(=O)c1c(C)[nH]c(/C=C2\C(=O)Nc3ccc(F)cc32)c1C [Sunitinib Malate] ?
RESULT: class 1

====

target.or.system: ZmDRIK1 (DROUGHT RESPONSIVE INACTIVE KINASE 1), kinase domain (Zea mays)
Construct: gene ZEAMMB73_Zm00001d028770; ZmDRIK1-KD R187-S514 (kinase domain)
test.name: biochemical
applied.conditions: read-out: dTm B, sheet ZmDRIK1-R187-S514;; DSF, Boltzmann fit, 0.1% DMSO
parameter: ΔTm at 10 µM (°C)
Value expressed in °C; do not type the unit.

Consider the worked cases shown below.
molecule | ΔTm at 10 µM / °C
CNc1nc(Nc2cn(C(C)(C)C#N)nc2C)ncc1C(F)(F)F | -0.833
Cc1cc(Nc2nc(N[C@@H](C)c3ncc(F)cn3)ncc2Cl)[nH]n1 | -0.906
CCN1CCN(Cc2ccc(Nc3ncc(F)c(-c4cc(F)c5nc(C)n(C(C)C)c5c4)n3)nc2)CC1 | -0.878
N#Cc1c(O)c2c(-c3ccc(-c4ccccc4O)cc3)csc2[nH]c1=O | -1.11
C=CC(=O)Nc1cc(Nc2nccc(-c3cn(C)c4ccccc34)n2)c(OC)cc1N(C)CCN(C)C | -0.497
COc1cc(F)c(F)c(Nc2ccc(I)cc2F)c1NS(=O)(=O)C1(C[C@H](O)CO)CC1 [Refametinib (RDEA119)] | -1.12
C[C@@H]1COCCN1c1cc(C2(S(C)(=O)=O)CC2)nc(-c2cccc3[nH]ccc23)n1 | -0.953

With those in mind, consider the next molecule.
QUERY: # query: ΔTm at 10 µM of entry O=C(NCc1ccccc1)c1csc(Nc2ccncn2)n1
RESULT: -0.845

====

target.or.system: ZmDRIK1 (DROUGHT RESPONSIVE INACTIVE KINASE 1), kinase domain (Zea mays)
Construct: gene ZEAMMB73_Zm00001d028770; ZmDRIK1-KD R187-S514 (kinase domain)
Sequence (C0P4K9 187-514): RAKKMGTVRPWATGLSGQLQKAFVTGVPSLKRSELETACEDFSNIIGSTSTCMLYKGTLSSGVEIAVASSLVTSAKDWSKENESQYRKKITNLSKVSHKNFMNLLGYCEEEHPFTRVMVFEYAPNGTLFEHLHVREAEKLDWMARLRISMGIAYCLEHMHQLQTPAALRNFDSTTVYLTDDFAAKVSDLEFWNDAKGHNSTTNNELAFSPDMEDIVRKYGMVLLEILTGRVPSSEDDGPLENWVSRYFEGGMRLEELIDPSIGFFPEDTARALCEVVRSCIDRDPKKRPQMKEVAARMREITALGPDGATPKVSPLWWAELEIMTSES
test.name: biochemical
applied.conditions: read-out: dTm B, sheet ZmDRIK1-R187-S514;; DSF, Boltzmann fit, 0.1% DMSO
parameter: ΔTm at 10 µM (°C)
Value expressed in °C; do not type the unit.

Consider the worked cases shown below.
compound | units.symbol | ΔTm at 10 µM
O=C(Nc1nc2cccc(-c3ccc(CN4CCS(=O)(=O)CC4)cc3)n2n1)C1CC1 | °C | -0.878
CS(=O)(=O)c1ccc(-c2cnc(N)c(C(=O)Nc3ccccc3)n2)cc1 | °C | -0.715
COc1cc2ncnc(Nc3ccc(F)c(Cl)c3)c2cc1NC(=O)/C=C/CN1CCCCC1 | °C | -0.735
C[C@H](Nc1ncnc2nc[nH]c12)c1cc2cccc(Cl)c2c(=O)n1-c1ccccc1 | °C | -1.16
Cn1c(=O)c(F)c(Nc2ccc(I)cc2F)c2c(=O)n(C[C@@H](O)CO)cnc21 | °C | -0.814
Cc1cc(Nc2cc(N3CCN(C)CC3)nc(/C=C/c3ccccc3)n2)n[nH]1 | °C | 4.28

QUERY: # query: ΔTm at 10 µM of entry Cc1nc(Nc2ncc(C(=O)Nc3c(C)cccc3Cl)s2)cc(N2CCN(CCO)CC2)n1
RESULT: -0.74

QUERY: And for COc1ccc2cc(-c3nc(-c4ccc([S+](C)[O-])cc4)[nH]c3-c3ccncc3)ccc2c1 (centres unmarked) ?
RESULT: -0.713
